Reference for the values: patent US11459324B2

Molecular target: Recombinant full length human OGA enzyme (Homo sapiens, UniProt O60502)
Construct: Recombinant full length human OGA enzyme was purchased from Origene
Sequence (O60502 whole entry): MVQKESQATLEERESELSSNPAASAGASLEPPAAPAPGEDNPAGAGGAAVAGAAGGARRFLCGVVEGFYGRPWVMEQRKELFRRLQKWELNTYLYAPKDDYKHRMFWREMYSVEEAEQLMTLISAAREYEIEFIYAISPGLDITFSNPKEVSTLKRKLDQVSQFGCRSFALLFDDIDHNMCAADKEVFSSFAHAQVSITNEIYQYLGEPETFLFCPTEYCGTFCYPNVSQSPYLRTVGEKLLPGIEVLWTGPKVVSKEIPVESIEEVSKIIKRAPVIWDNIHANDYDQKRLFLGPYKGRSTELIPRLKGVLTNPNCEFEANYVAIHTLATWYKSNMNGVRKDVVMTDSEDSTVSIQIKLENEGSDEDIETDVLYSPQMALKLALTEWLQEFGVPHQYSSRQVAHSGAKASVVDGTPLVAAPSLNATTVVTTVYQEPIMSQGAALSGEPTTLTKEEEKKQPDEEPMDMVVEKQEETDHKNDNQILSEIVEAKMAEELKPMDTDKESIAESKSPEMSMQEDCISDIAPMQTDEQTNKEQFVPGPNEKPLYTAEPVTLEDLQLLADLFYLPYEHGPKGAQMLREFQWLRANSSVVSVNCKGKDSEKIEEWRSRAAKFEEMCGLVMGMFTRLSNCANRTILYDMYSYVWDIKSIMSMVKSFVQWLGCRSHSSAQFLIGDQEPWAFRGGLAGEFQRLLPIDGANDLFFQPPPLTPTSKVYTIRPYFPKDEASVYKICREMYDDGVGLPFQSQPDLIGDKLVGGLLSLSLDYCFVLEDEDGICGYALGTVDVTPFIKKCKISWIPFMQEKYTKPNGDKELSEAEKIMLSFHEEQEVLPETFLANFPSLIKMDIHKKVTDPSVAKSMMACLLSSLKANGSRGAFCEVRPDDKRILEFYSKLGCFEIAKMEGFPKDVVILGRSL
Assay: OGA Enzyme Inhibition Biochemical Assay
Conditions: 1 nM OGA, 100 μM 4-MUGlcNAc (Km), pH 6.4, 90 minutes at room temperature, 10-point dose-response from 20 μM
pIC50: −log10 of the molar value.
Quantity Kind: pIC50

I: CC(=O)Nc1ncc(CN2CCCC(Cc3ncc(F)cn3)C2C)s1 (stereo not drawn)
II: COc1ccnc(C[C@H]2CCN(Cc3cnc(NC(C)=O)s3)C2)n1
## Task Lab note: record which item had the higher pIC50, I or II . Kindly state the label of the option you pick.
## Result II

1: CC(=O)Nc1ncc(CN2CC(F)CC(Cc3ncc(F)cn3)C2)s1 (stereo not drawn)
2: COc1cnn(CC2CCCN(Cc3cnc(NC(C)=O)s3)C2)c1 (stereo not drawn)
## Task Given the listed items, does 1 or 2 have the lesser reported pIC50? Kindly state the label of the option you pick.
## Result 2
